System: A2058 cells
testSummary: Cell viability assay (CELL-TITER-GLO) in A2058 cells
Format: cell-based
measurementConditions: Homo sapiens, A2058, 48 h, A2058 cells, 48 hour treatment, cell viability; read-out: IC50 (μM) A2058
Some compounds, each annotated with its measured IC50.
Give the value in µM but do not write µM after it.

CC(C)[C@H](O)C(=O)N[C@H]1Cc2ccc3c(c2)C2(C4=C(c5cnco5)N=C(O4)[C@H](C(C)C)NC1=O)c1ccccc1N[C@H]2O3 (some centres unmarked) [Example 83] ... 0.433
COc1ccc(-c2cnc(-c3nc4oc3C35c6ccccc6N[C@H]3Oc3ccc(cc35)CC(NC(=O)[C@@H](O)C(C)C)C(=O)N[C@H]4C(C)C)o2)cc1 (some centres unmarked) [Example 71] ... 0.639

Query block: Which IC50 is listed for CC(C)[C@H](O)C(=O)N[C@H]1Cc2ccc3c(c2)C2(C4=C(c5nc(CO)co5)N=C(O4)[C@H](C(C)C)NC1=O)c1ccccc1N[C@H]2O3 (some centres unmarked) [Example 73] ?
Result block: 0.093

----------
Test system: A2058 cells
testSummary: Cell viability assay (CELL-TITER-GLO) in A2058 cells
Assay type: cell-based
measurementConditions: Homo sapiens, A2058, 48 h, A2058 cells, 48 hour treatment, cell viability; read-out: IC50 (μM) A2058
Some compounds, each annotated with its measured IC50.

Worked examples follow.
CC(C)[C@H](O)C(=O)N[C@H]1Cc2ccc3c(c2)C2(C4=C(C(=O)NC5CCc6ccccc65)N=C(O4)[C@H](C(C)C)NC1=O)c1ccccc1N[C@H]2O3 (some centres unmarked) ... > 1 µM
CC(C)[C@H](O)C(=O)N[C@H]1Cc2ccc3c(c2)C2(C4=C(c5nc(C(=O)N6CCCC6)co5)N=C(O4)[C@H](C(C)C)NC1=O)c1ccccc1N[C@H]2O3 (some centres unmarked) ... 0.636 µM
CC(C)[C@H](O)C(=O)N[C@H]1Cc2ccc3c(c2)C2(C4=C(C(=O)N5CCc6ccccc65)N=C(O4)[C@H](C(C)C)NC1=O)c1ccccc1N[C@H]2O3 (some centres unmarked) ... > 1 µM
CNC(=O)c1nc2oc1C13c4ccccc4N[C@H]1Oc1ccc(cc13)C[C@H](NC(=O)[C@@H](O)C(C)C)C(=O)N[C@H]2C(C)C (some centres unmarked) ... > 1 µM

For the next question, use this compound.
Query block: Which IC50 is listed for CC(C)[C@H](O)C(=O)N[C@H]1Cc2ccc3c(c2)C2(C4=C(c5ncco5)N=C(O4)[C@H](C(C)C)NC1=O)c1ccccc1N[C@H]2O3 (some centres unmarked) ?
Result block: 0.154 µM

----------
System: U937 cells
testSummary: Cell viability assay (CELL-TITER-GLO) in U937 cells
Format: cell-based
measurementConditions: Homo sapiens, U-937; U937 cells, 48 hour treatment, cell viability; read-out: IC50 (μM) U937
parameterMeasured: IC50 (µM)
Give the value in µM but do not write µM after it.

Worked examples follow.
CCC(O)(CC)C(=O)N[C@H]1Cc2ccc3c(c2)C2(C4=C(c5nc(C(=O)O)co5)N=C(O4)[C@H](C(C)C)NC1=O)c1ccccc1N[C@H]2O3 (some centres unmarked) ... 0.9
CC(C)[C@H](O)C(=O)N[C@H]1Cc2ccc3c(c2)C2(C4=C(c5nc(C(=O)O)co5)N=C(O4)[C@H](C(C)C)NC1=O)c1ccccc1N[C@H]2O3 (some centres unmarked) ... 0.736

For the next question, use this compound.
Query block: Which IC50 is listed for CC(C)[C@H](O)C(=O)N[C@H]1Cc2ccc3c(c2)C2(C4=C(c5nc(C(=O)N6CCN(C)CC6)co5)N=C(O4)[C@H](C(C)C)NC1=O)c1ccccc1N[C@H]2O3 (some centres unmarked) ?
Result block: 0.162

----------
Test system: A2058 cells
testSummary: Cell viability assay (CELL-TITER-GLO) in A2058 cells
Format: cell-based
measurementConditions: Homo sapiens, A2058, 48 h, A2058 cells, 48 hour treatment, cell viability; read-out: IC50 (μM) A2058
Some molecules, each annotated with its measured IC50.
Give the value in µM but do not write µM after it.

Worked examples follow.
CCCCNC(=O)c1coc(-c2nc3oc2C24c5ccccc5N[C@H]2Oc2ccc(cc24)C[C@H](NC(=O)[C@@H](O)C(C)C)C(=O)N[C@H]3C(C)C)n1 (some centres unmarked) [Example 62] ... 0.243
COC(=O)c1coc(-c2nc3oc2C24c5ccccc5N[C@H]2Oc2ccc(cc24)C[C@H](NC(=O)[C@@H](O)C(C)C)C(=O)N[C@H]3C(C)C)n1 (some centres unmarked) [Example 46] ... 0.044
CCC(O)c1coc(-c2nc3oc2C24c5ccccc5N[C@H]2Oc2ccc(cc24)C[C@H](NC(=O)[C@@H](O)C(C)C)C(=O)N[C@H]3C(C)C)n1 (some centres unmarked) [Example 75] ... 0.226

For the next question, use this molecule.
Query block: Which IC50 is listed for CCC(C)(O)C(=O)N[C@H]1Cc2ccc3c(c2)C2(C4=C(c5nc(C(=O)OC)co5)N=C(O4)[C@H](C(C)C)NC1=O)c1ccccc1N[C@H]2O3 (some centres unmarked) [Example 52] ?
Result block: 0.108

----------
System: U937 cells
testSummary: Cell viability assay (CELL-TITER-GLO) in U937 cells
Type: cell-based
measurementConditions: Homo sapiens, U-937; U937 cells, 48 hour treatment, cell viability; read-out: IC50 (μM) U937
parameterMeasured: IC50

Worked examples follow.
CC(C)[C@H](O)C(=O)N[C@H]1Cc2ccc3c(c2)C2(C4=C(C(=O)NCc5ccccc5)N=C(O4)[C@H](C(C)C)NC1=O)c1ccccc1N[C@H]2O3 (stereo partly drawn) [Example 15] ... > 1 µM
COC(=O)c1nc2oc1[C@@]13c4ccccc4NC1Oc1ccc(cc13)CC(NC(=O)OCc1ccccc1)C(=O)N[C@H]2C(C)C (stereo partly drawn) [Example 4] ... > 1 µM
CCC(O)(CC)C(=O)N[C@H]1Cc2ccc3c(c2)C2(C4=C(c5nc(CO)co5)N=C(O4)[C@H](C(C)C)NC1=O)c1ccccc1N[C@H]2O3 (stereo partly drawn) [Example 74] ... 0.11 µM
CC(C)[C@H](O)C(=O)N[C@H]1Cc2ccc3c(c2)[C@]2(C4=C(C(=O)O)N=C(O4)[C@H](C(C)C)NC1=O)c1ccccc1NC2O3 (stereo partly drawn) [Example 12] ... > 1 µM
COC(=O)c1nc([C@@H](NC(=O)[C@H](Cc2ccc(O)cc2)NC(=O)[C@@H](O)C(C)C)C(C)C)oc1-c1c[nH]c2ccccc12 [Example 89] ... > 1 µM

For the next question, use this compound.
Query block: Lookup: IC50 / U937 cells / COC(=O)c1nc2oc1C13c4ccccc4N[C@H]1Oc1ccc(cc13)C[C@H](NC(=O)[C@@H]1C[C@@H](O)CN1)C(=O)NC2C(C)C (stereo partly drawn) [Example 36]
Result block: > 1 µM

----------
Test system: DU145
testSummary: Cell profiling, DU145 tumor cell line
Type: cell-based
measurementConditions: Homo sapiens, DU-145; Tumor cell line DU145, origin Prostate
parameterMeasured: IC50 (nM)
Give the value in nM but do not write nM after it.

Query block: Which IC50 is listed for COC(=O)c1coc(-c2nc3oc2C24c5ccccc5N[C@H]2Oc2ccc(cc24)C[C@H](NC(=O)[C@@H](O)C(C)C)C(=O)N[C@H]3C(C)C)n1 (stereo partly shown) ?
Result block: 67

----------
Tested on: A2058 cells
testSummary: Cell viability assay (CELL-TITER-GLO) in A2058 cells
Format: cell-based
measurementConditions: Homo sapiens, A2058, 48 h, A2058 cells, 48 hour treatment, cell viability; read-out: IC50 (μM) A2058
Description: Cell viability assays were run using standard protocols known to those of skill in art. Cells were plated in 96 well plates at the density of 3,000-10,000 cells per well. Twenty four hours later, cells were treated with increasing concentration of test compounds (1 nM to 1 μM). After another 48 hour, cell survival was measured using CELL-TITER-GLO® reagent (Promega) following the protocol provided by the manufacture. […]
Some compounds, each annotated with its measured IC50.

Worked examples follow.
Cc1noc(-c2nc3oc2C24c5ccccc5N[C@H]2Oc2ccc(cc24)C[C@H](NC(=O)[C@@H](O)C(C)C)C(=O)N[C@H]3C(C)C)n1 (stereo partly drawn) ... 0.479 µM
CC(C)[C@H](O)C(=O)N[C@H]1Cc2ccc3c(c2)C2(C4=C(C(=O)NCC(c5ccccc5)c5ccccc5)N=C(O4)[C@H](C(C)C)NC1=O)c1ccccc1N[C@H]2O3 (stereo partly drawn) ... > 1 µM
COC(=O)c1nc2oc1C13c4cc(ccc4O[C@@H]1N(S(C)(=O)=O)c1ccccc13)C[C@H](NC(=O)[C@@H](O)C(C)C)C(=O)N[C@H]2C(C)C (stereo partly drawn) ... > 1 µM
CC(C)[C@H](O)C(=O)N[C@H]1Cc2ccc3c(c2)C2(C4=C(C(=O)NC(C)(C)C)N=C(O4)[C@H](C(C)C)NC1=O)c1ccccc1N[C@H]2O3 (stereo partly drawn) ... > 1 µM
CC(C)[C@H](O)C(=O)N[C@H]1Cc2ccc3c(c2)C2(C4=C(C(=O)N5CCCC5c5ccccc5)N=C(O4)[C@H](C(C)C)NC1=O)c1ccccc1N[C@H]2O3 (stereo partly drawn) ... > 1 µM

For the next question, use this compound.
Query block: Which IC50 is listed for COC(=O)c1nc2oc1[C@@]13c4ccccc4NC1Oc1ccc(cc13)CC(N)C(=O)N[C@H]2C(C)C (stereo partly drawn) ?
Result block: > 1 µM
